experiment: Solubility of crystalline forms in solvents; type: physicochemical; conditions: isopropanol, organic solvent or mixture, solvent isopropanol; temperature not given; read-out: Solubility, Isopropanol
measured attribute: solubility

* CN1CCN(c2ccc3nc(-c4c(N)c5c(F)cccc5[nH]c4=O)[nH]c3c2)CC1 [Anhydrous form II] | 80 µg/mL

---

assay: Solubility of crystalline forms in solvents; format: physicochemical; conditions: acetone, organic solvent or mixture, solvent acetone; temperature not given; read-out: Solubility, Acetone
measured attribute: solubility (µg/mL)

- CN1CCN(c2ccc3nc(-c4c(N)c5c(F)cccc5[nH]c4=O)[nH]c3c2)CC1 [Anhydrous form II]: 510

---

assay: Solubility of crystalline forms in solvents; format: physicochemical; conditions: water, solvent water; temperature not given; read-out: Solubility, Water
measured attribute: solubility (mg/mL)

* CN1CCN(c2ccc3nc(-c4c(N)c5c(F)cccc5[nH]c4=O)[nH]c3c2)CC1 [Anhydrous form II] | 68

---

test: Solubility of crystalline forms in solvents; format: physicochemical; settings: ethanol, 25 °C, organic solvent or mixture, ethanol, 25° C.; read-out: Solubility at 25° C., ethanol
measured attribute: solubility (µg/mL)

• CN1CCN(c2ccc3nc(-c4c(N)c5c(F)cccc5[nH]c4=O)[nH]c3c2)CC1 [hemi-pentahydrate] = 2000

---

assay: Solubility of crystalline forms in solvents; assay type: physicochemical; conditions: 0.1 N HCl, 25 °C, simulated gastric fluid, HCl 0.1N, 25° C.; read-out: Solubility at 25° C., HCl 0.1N
measured attribute: solubility (mg/mL)

• CN1CCN(c2ccc3nc(-c4c(N)c5c(F)cccc5[nH]c4=O)[nH]c3c2)CC1 [hemi-pentahydrate] = 55

Values were extracted from patent US8563556B2.
